- Test system: A549
- METHOD_NOTES: MTT cytotoxicity, A549
- Format: cell-based, human
- CONDITIONS: 48 h incubation, read-out: Cytotoxic effect, IC50
MEASURE: IC50

COMPOUND | IC50
Cc1cc(O)n(C(N)=S)n1.Cc1ccc(C(C)C)cc1.[Cl-].[Cl][Ru+] [2d] | > 200 µM
Cc1ccc(C(C)C)cc1.NC(=S)n1nc(-c2ccccc2)cc1O.[Cl-].[Cl][Ru+] [2c] | > 200 µM

Now examine the next entry.
Inquiry: Lab request: please report IC50 under test system A549 for Cc1cc(C)n(C(N)=S)n1.Cc1ccc(C(C)C)cc1.F[P-](F)(F)(F)(F)F.[Cl-].[Ru+2] [3a]
Reply text: > 200 µM
